Source: the Deep4Chem optical property database

- Experiment notes: solvent given as SMILES
- Run conditions: in O
Measured parameter: emission maximum (nm)

Known results for compounds:
>>> quantitative_readout("O=C(O)CCCCCn1c2ccc(Br)cc2c(=O)c2cc(S(=O)(=O)O)ccc21")
435
>>> quantitative_readout("CC(=O)Nc1ccc2c(c1)c(=O)c1ccccc1n2CCCCCC(=O)O")
450
>>> quantitative_readout("CC1(C)C(/C=C/c2cc3ccc(O)cc3oc2=O)=[N+](CCCS(=O)(=O)[O-])c2ccccc21")
620
>>> quantitative_readout("O=c1ccc2ccccc2o1")
385
>>> quantitative_readout("Oc1ccc(-c2cccs2)cc1-c1nc2ccccc2s1")
566
>>> quantitative_readout("O=c1c2cc(S(=O)(=O)O)ccc2[nH]c2ccc(S(=O)(=O)O)cc12")
417
>>> quantitative_readout("CC[n+]1nc2cc3c4c(c2c2cc(F)ccc21)CCCN4CCC3")
564
>>> quantitative_readout("Oc1c(-c2cccs2)cccc1-c1nc2ccccc2s1")
587

[P] CC[n+]1nc2cc3c4c(c2c2cc(C)ccc21)CCCN4CCC3
[Q] N#Cc1cccc(N)c1
[Q] Larger number for emission maximum: P , or Q ? Identify your selection by its label.
[A] P

* * *

- Experiment notes: solvent given as SMILES
- Run conditions: in CC(C)O
Measured parameter: emission maximum (nm)

>>> quantitative_readout("CN(C)c1ccc(/C=C/c2cc[n+](Cc3cc(C[n+]4ccc(/C=C/c5ccc(N(C)C)cc5)cc4)cc(C[n+]4ccc(/C=C/c5ccc(N(C)C)cc5)cc4)c3)cc2)cc1")
607
>>> quantitative_readout("CCCCCCCCCCCCCCCCN(CCCCCCCCCCCCCCCC)c1ccc(/C=C/c2cc[n+](Cc3cc(C[n+]4ccc(/C=C/c5ccc(N(CCCCCCCCCCCCCCCC)CCCCCCCCCCCCCCCC)cc5)cc4)cc(C[n+]4ccc(/C=C/c5ccc(N(CCCCCCCCCCCCCCCC)CCCCCCCCCCCCCCCC)cc5)cc4)c3)cc2)cc1")
613
>>> quantitative_readout("CN(C)c1ccc(/C=C/c2cc[n+](CCCCC[n+]3ccc(/C=C/c4ccc(N(C)C)cc4)cc3)cc2)cc1")
593
>>> quantitative_readout("COc1cc(OC)c2ccc(=O)oc2c1")
417
>>> quantitative_readout("Fc1ccc(-c2nc3n(c2-c2ccncc2)CCS3)cc1")
436
>>> quantitative_readout("Cc1ccc(C(=O)/C=C2\\C(=O)Nc3ccccc32)cc1C")
403
>>> quantitative_readout("COCCOc1cc(C=O)c(OCCOC)cc1C=O")
479
>>> quantitative_readout("CCC/N=C/c1cc2ccc(N(C)C)cc2cc1OC")
547
>>> quantitative_readout("Cc1ccc(-c2cc(-c3ccc(N(C)C)cc3)c3c(N)nc(N4CCCC4)c(C#N)c3n2)cc1")
506

* * *

- Experiment notes: solvent given as SMILES
- Run conditions: in ClC(Cl)Cl
Measured parameter: emission maximum (nm)

>>> quantitative_readout("Cc1cc(-c2ccc(-n3c4ccccc4c4ccccc43)cc2)nc(-c2ccc(-n3c4ccccc4c4ccccc43)cc2)n1")
426
>>> quantitative_readout("Cc1cc(=O)oc2cc3c4ccccc4c4ccccc4c3cc12")
415
>>> quantitative_readout("CC[n+]1c(C=C2C(=O)C(C=C3N(C)c4ccccc4C3(C)C)=C2[O-])[se]c2ccccc21")
675
>>> quantitative_readout("Cc1cc(O)c(C(C)C)cc1/N=C/c1ccc(C(F)(F)F)cc1")
430
>>> quantitative_readout("CN(C)c1ccc2nc(-c3ccc(C=C(C#N)C#N)cc3)sc2c1")
683
>>> quantitative_readout("CC(=O)c1ccc(-c2nc3ccc(N(C)C)c(Br)c3s2)cc1")
505
>>> quantitative_readout("CCCCn1c2ccccc2c2ccc3c4cc(-c5ccc(OC)cc5)ccc4n(CCCC)c3c21")
409
>>> quantitative_readout("Cc1cc(C)c(C2=C3C=CC(c4ccc5c(ccc6ccccc65)c4)=[N+]3[B-](F)(F)n3c2ccc3-c2ccc3c(ccc4ccccc43)c2)c(C)c1")
624
>>> quantitative_readout("N#Cc1nc(N(Cc2ccc(Br)cc2)Cc2ccc(Br)cc2)c(C#N)nc1N(Cc1ccc(Br)cc1)Cc1ccc(Br)cc1")
575
>>> quantitative_readout("c1ccc(-c2nc(-c3ccccn3)sc2N(c2ccccc2)c2ccccc2)cc1")
482
